# experimental-system: CCR7 (Homo sapiens)
# Construct: expressed in transfected cells; host or cells: Ba/F3
# Sequence (P32248 25-378): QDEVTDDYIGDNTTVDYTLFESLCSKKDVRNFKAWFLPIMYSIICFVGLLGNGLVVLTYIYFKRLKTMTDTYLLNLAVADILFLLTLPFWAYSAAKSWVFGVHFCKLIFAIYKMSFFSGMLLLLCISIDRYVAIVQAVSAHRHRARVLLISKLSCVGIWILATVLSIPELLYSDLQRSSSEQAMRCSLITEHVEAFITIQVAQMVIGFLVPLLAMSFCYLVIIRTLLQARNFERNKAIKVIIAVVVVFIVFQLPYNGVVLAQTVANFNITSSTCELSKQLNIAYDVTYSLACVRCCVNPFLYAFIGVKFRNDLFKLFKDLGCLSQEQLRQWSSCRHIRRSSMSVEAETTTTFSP
# assay-notes: CCR7 [35S]GTPγS exchange assay (SPA, Ba/F3-CCR7 membranes, MIP-3β)
# Format: biochemical
# assay-setup: 2 nM MIP-3β
# Procedure: CCR7 Membrane Preparation. Ba/F3-CCR7 membranes were prepared as previously described (Hipkin et al., J. Biol. Chem., 272, 1997, 13869-76). […] The exchange of guanosine 5′-[γ-^35S]triphospate ([^35S]GTPγS, triethylammonium salt; specific activity=1250 Ci/mmol; NEN Boston, Mass.) was measured using a scintillation proximity assay (SPA) as previously described (Cox, et. al., Mol. Pharmacol., 59, 2001, 707-15). […]
measured-parameter: EC50 (µM)
Expressed in µM, but write only the number.

stdin: Quickly give me recorded EC50 for `CCOC(=O)C1=C(Nc2cccc(C(=O)N(C)C)c2O)C(N[C@H](CC)c2cc(C(C)C)co2)=NS1(=O)=O`
stdout: 9.5
